All figures here come from PubChem BioAssay (NCI).

System: NCI-H522 lung
ASSAY_DETAILS: NCI-60 one-dose screen, 48 h (100 = growth as untreated, 0 = no growth, -100 = all killed)
PROTOCOL_CONDITIONS: 10 µM
Compounds without any hit were thinned out: in the full panel of roughly 83,000, 20% have a hit.
READOUT_LABEL: growth (%)
Give the value, in units of %, as a plain number.

What value of measured growth is listed for `CC(C)OP(=O)(O)c1ncc(-c2ccc(C(F)(F)F)cc2)c(NC2CCCCCC2)n1` ?
48.8

What value of measured growth is listed for `C=CCNCCCN1C(=O)c2ccc3c4c(ccc(c24)C1=O)C(=O)N(CCCNCC=C)C3=O` ?
-77.3

What value of measured growth is listed for `O=C(CCCC(=O)N/N=C/c1cc(Cl)ccc1O)N/N=C\c1cc(Cl)ccc1O` ?
18.3

What value of measured growth is listed for `O=C(O)CNS(=O)(=O)c1ccc(OCCOc2ccc(S(=O)(=O)NCC(=O)O)cc2)cc1` ?
88.9

What value of measured growth is listed for `Fc1ccc2[nH]c3c(NCCCN4CCOCC4)ncnc3c2c1` ?
58.1

What value of measured growth is listed for `COc1cc(/C=C/C(=O)c2cc(-c3ccc(C(F)(F)F)cc3)ccc2O)cc(OC)c1OC` ?
40.8

What value of measured growth is listed for `CCOC(=O)[C@@H](Cc1ccccc1)NC(=O)c1[nH]c2ccc(Cl)cc2c(=O)c1C` ?
71.8
